- SYSTEM: DNA polymerase beta (Rattus norvegicus, UniProt P06766)
- PROCEDURE_DETAILS: Inhibition of rat DNA polymerase beta in presence of BSA
Can you tell me pIC50 for the items I'm about to list?
Field pIC50 (float): negative decimal logarithm of the concentration in molar.

Input: Any idea what pIC50 was measured for CC1(C)CC[C@]2(C(=O)O)CC[C@]3(C)C(=CC[C@@H]4[C@@]5(C)CC[C@H](O)C(C)(C)[C@@H]5CC[C@]43C)[C@@H]2C1 ?
Output: 5.12

Input: Given C=C1[C@H]2C3=CC[C@@H]4[C@@]5(C)CC[C@H](O)C(C)(C)[C@@H]5CC[C@@]4(C)[C@]3(C)CC[C@@]2(C(=O)O)CC[C@H]1C , state its recorded pIC50.
Output: 5.28

Input: What does the record list as pIC50 for C=C1CC[C@]2(C(=O)O)CC[C@]3(C)[C@H](CC[C@@H]4[C@@]5(C)CC[C@H](O)C(C)(C)[C@@H]5CC[C@]43C)C2=C1C ?
Output: 5.25

Input: # get_value(readout='pIC50', item= C[C@H]1[C@H](C)CC[C@]2(C(=O)O)CC[C@]3(C)C(=CC[C@@H]4[C@@]5(C)CC[C@H](O)C(C)(C)[C@@H]5CC[C@]43C)[C@H]12 )
Output: 5.07
